test system: Candida albicans; assay: Antifungal activity against Candida albicans after 24 hrs by serial dilution method; format: functional
Please go through the items and note down their MIC80.
Kindly answer with a numeric value in µg/mL, unit omitted.

[in] Output measured MIC80 for this item: `Cc1ccc(CNCCCn2c3c(c4cc(C)ccc42)CCCC3)cc1`
[out] 32

[in] Output measured MIC80 for this item: `CN1CCC(OC(=O)c2ccc3c(c2)c2c(n3CCCNCc3ccccc3)CCCC2)CC1`
[out] 32

[in] Output measured MIC80 for this item: `O=C(c1ccc2c(c1)c1c(n2CCCNCc2ccccc2)CCCC1)c1nccs1`
[out] 32

[in] Output measured MIC80 for this item: `Cc1ccc(C(=O)c2ccc3c(c2)c2c(n3CCCNCc3ccccc3)CCCC2)nc1`
[out] 64

[in] Output measured MIC80 for this item: `OC(Cn1cncn1)(Cn1cncn1)c1ccc(F)cc1F`
[out] 0.5
